# Tested on: AGS gastric carcinoma cells [heterozygous G12D]
# EXPERIMENT DESCRIPTION: Cancer cell line proliferation (CellTiter-Glo), AGS
# Format: cell-based
# TEST CONTEXT: Homo sapiens, 72 hr treatment, read-out: AGS CTG (EC50)
# Description: The following cancer cell lines were employed: AGS gastric carcinoma [heterozygous G12D](ATCC, CRL-1739); A-427 lung carcinoma [heterozygous G12D](ATCC, HTB-53); ASPC1 pancreatic adenocarcinoma [homozygous G12D](ATCC, CRL-1682) and SW1990 pancreatic adenocarcinoma [homozygous G12D](ATCC CRL-2172). Cell lines were cultured essentially according to ATCC recommendations. […]
pEC50: −log10 of the molar value.
QUANTITY KIND: pEC50

Worked cases, answers included:
>  <COMPOUND>
C#Cc1c(F)ccc2cc(O)cc(-c3ncc4c(N5CC6CCC(C5)N6)nc(OCC5(CN6CCC(N7CCN(Cc8cc9c(cc8F)CN(C(=O)c8cc(C(C)C)c(O)cc8O)C9)CC7)CC6)CC5)nc4c3F)c12

>  <pEC50>
> 7.00

$$$$
>  <COMPOUND>
CCNC(=O)c1nnc(-c2cc(C(C)C)c(O)cc2O)n1-c1ccc(CN2CCN([C@H]3C[C@@H](COc4nc(N5CC6CCC(C5)N6)c5cnc(-c6cccc7ccccc67)c(F)c5n4)N(C)C3)CC2)cc1

>  <pEC50>
> 7.00

$$$$
>  <COMPOUND>
C#Cc1c(F)ccc2cc(O)cc(-c3ncc4c(N5CC6CCC(C5)N6)nc(OCC5(CN6CC(N7CCN(Cc8ccc9c(c8)CN(C(=O)c8cc(C(C)C)c(O)cc8O)C9)CC7)C6)CC5)nc4c3F)c12

>  <pEC50>
6.00 to 7.00

$$$$
>  <COMPOUND>
C#Cc1cccc2cc(O)cc(-c3ncc4c(N5CC6CCC(C5)N6)nc(OCC5(CN6CCC(C(=O)N7CCN(Cc8ccc(-n9c(C(=O)NC(C)C(F)(F)F)nnc9-c9cc(C(C)C)c(O)cc9O)cc8)CC7)CC6)CC5)nc4c3F)c12 (stereo not drawn)

>  <pEC50>
> 7.00

$$$$
>  <COMPOUND>
C#Cc1cccc2cccc(-c3ncc4c(N5CC6CCC(C5)N6)nc(OCCN5CCN(C(=O)C6CCN(Cc7ccc(-n8c(O)nnc8-c8cc(C(C)C)c(O)cc8O)cc7)CC6)CC5)nc4c3F)c12

>  <pEC50>
6.00 to 7.00

$$$$
>  <COMPOUND>
C#Cc1c(F)ccc2cc(O)cc(-c3ncc4c(N5CC6CNC(C6)C5)nc(OCC5(CN6CCC(N7CCN(Cc8ccc9c(c8)CN(C(=O)c8cc(C(C)C)c(O)cc8O)C9)CC7)CC6)CC5)nc4c3F)c12 (stereo not drawn)

>  <pEC50>
6.00 to 7.00

$$$$
>  <COMPOUND>
C#Cc1c(F)ccc2cc(O)cc(-c3ncc4c(N5CC6CCC(C5)N6)nc(OCC5(CN6CCC(N7CCN(Cc8ccc9c(c8)CN(C(=O)c8cc(C(C)C)c(O)cc8O)C9)CC7)CC6)CC5)nc4c3F)c12

>  <pEC50>
> 7.00

$$$$
>  <COMPOUND>
CCNC(=O)c1nnc(-c2cc(C(C)C)c(O)cc2O)n1-c1ccc(CN2CCN([C@H]3C[C@@H](COc4nc(N5CC6CCC(C5)N6)c5cnc(-c6cccc7cccc(OC)c67)c(F)c5n4)N(C)C3)CC2)cc1

>  <pEC50>
> 7.00

$$$$

Next:
Query block: Return reported pEC50; argument: C#Cc1c(F)ccc2cc(O)cc(-c3ncc4c(N5CC6CCC(C5)N6C(=O)C(F)(F)F)nc(OCC5(CN6CCN(CC7CCN(Cc8ccc(-n9c(C(=O)NC(C)C(F)(F)F)nnc9-c9cc(C(C)C)c(O)cc9O)cc8)CC7)CC6)CC5)nc4c3F)c12 (stereo not drawn)
Result block: > 7.00

Source of measurements: patent US20260070929A1
